assay: self-splicing fitness, log relative to wild type (ln ratio); higher = more splicing; Tetrahymena group I intron in knt gene, E. coli kanamycin selection, DiMSum; sequences stand for … in CUCUCU…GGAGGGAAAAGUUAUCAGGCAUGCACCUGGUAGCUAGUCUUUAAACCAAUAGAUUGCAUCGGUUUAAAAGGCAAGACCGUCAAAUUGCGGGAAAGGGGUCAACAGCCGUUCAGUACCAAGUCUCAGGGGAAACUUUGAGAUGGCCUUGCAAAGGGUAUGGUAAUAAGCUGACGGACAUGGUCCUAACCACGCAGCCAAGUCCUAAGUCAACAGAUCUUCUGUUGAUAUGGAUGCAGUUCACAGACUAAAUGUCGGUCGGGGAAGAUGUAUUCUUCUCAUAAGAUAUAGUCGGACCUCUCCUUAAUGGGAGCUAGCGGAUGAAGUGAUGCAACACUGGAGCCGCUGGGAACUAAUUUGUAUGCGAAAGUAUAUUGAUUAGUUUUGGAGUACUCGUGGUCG; conditions: 30 °C;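 also: selection with 25 µg/mL kanamycin versus none on LB agar overnight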
# reported self-splicing fitness (ln); entries follow

{"Sequence content": "AUCCAGCAAUAUUACGUCCG", "self-splicing fitness (ln)": -2.45}
{"Sequence content": "GCGGAGCAAUAUUACGACGA", "self-splicing fitness (ln)": -0.227}
{"Sequence content": "AGACAGCAAUAUUACGAUUA", "self-splicing fitness (ln)": -1.15}
{"Sequence content": "AGGAAGCAAUAUUACGAAUU", "self-splicing fitness (ln)": -2.58}
{"Sequence content": "CUGAAGCAAUAUUACGCAGC", "self-splicing fitness (ln)": -3.2}
{"Sequence content": "CAGGAGCAAUAUUACGCCUC", "self-splicing fitness (ln)": -2.08}
{"Sequence content": "AAGUAGCAAUAUUACGCUCA", "self-splicing fitness (ln)": -0.287}
{"Sequence content": "CUACAGCAAUAUUACGUCAC", "self-splicing fitness (ln)": -3.35}
